Source of measurements: patent US20100215618A1

# PROTOCOL NOTES: in vitro
# Format: in vitro ADME, Canine
# CONDITION CONTEXT: dog, MDCK
Please respond with reported Papp at 2 h, 10 µM for every item in the list.
Numbers only, in ×10⁻⁶ cm/s.

Examples with answers:
- CC[C@H](C)[C@H](NC(=O)OC)C(=O)N1CCC[C@H]1c1ncc(-c2ccc(-c3ccc(C(=O)Nc4ccc(CN5CCS(=O)(=O)CC5)cc4)cc3)cc2)[nH]1 [Example 16]: 1
- COC(=O)N[C@H](C(=O)N1CCC[C@@H]1c1ncc(-c2ccc(-c3ccc(C(=O)Nc4ccc(CN5CCS(=O)(=O)CC5)cc4)cc3)cc2)[nH]1)C(C)(C)C [Example 22]: 0.55
- COC(=O)N[C@H](C(=O)N1CCC[C@H]1c1ncc(-c2ccc(-c3ccc(C(=O)Nc4ccc(CN5CCS(=O)(=O)CC5)cc4)cc3)cc2)[nH]1)[C@@H](C)O [Example 17]: 0.4
- CN(C)[C@@H](C(=O)N1CCC[C@H]1c1ncc(-c2ccc(-c3ccc(C(=O)Nc4ccc(CN5CCS(=O)(=O)CC5)cc4)cc3)cc2)[nH]1)c1ccccc1 [Example 9]: 0.9

The molecule identified as CCCS(=O)(=O)N1CCN(Cc2ccc(NC(=O)c3ccc(-c4ccc(-c5cnc([C@@H]6CCCN6C(=O)[C@@H](NC(=O)OC)C(C)C)[nH]5)cc4)cc3)cc2)CC1 [Example 40] registered its Papp at 2 h, 10 µM at 0.7

---

# System: HCV replicon cells Huh 9B (genotype 1b)
# PROTOCOL NOTES: 1b Replicon Assay (luciferase readout)
# Assay type: cell-based
# CONDITION CONTEXT: Hepatitis C virus; Huh 9B replicon cells, 72 h, luciferase activity; read-out: pIC50 1b Replicon (converted)
QUANTITY: log10(IC50) (log10 of the value in nM)
Please keep in mind that the values are log10 of IC50 expressed in nM.

• COC(=O)N[C@H](C(=O)N1CCC[C@H]1c1ncc(-c2ccc(-c3cccc(C(=O)Nc4ccc(CN5CCS(=O)(=O)CC5)cc4)c3)cc2)[nH]1)C(C)C = 0.86
• CN(C)[C@@H](C(=O)N1CCC[C@H]1c1ncc(-c2cccc(-c3ccc(C(=O)Nc4ccc(CN5CCS(=O)(=O)CC5)cc4)cc3)c2)[nH]1)c1ccccc1 = 0.68
• COC(=O)N[C@H](C(=O)N1CCCC[C@H]1c1ncc(-c2ccc(-c3ccc(C(=O)Nc4ccc(CN5CCS(=O)(=O)CC5)cc4)cc3)cc2)[nH]1)c1ccccc1 = -0.10
• COC(=O)N[C@@H](C(=O)N1CCC[C@H]1c1ncc(-c2ccc(-c3ccc(C(=O)Nc4ccc(CN5CCS(=O)(=O)CC5)cc4)cc3)cc2)[nH]1)c1ccccc1 = -1.33

Consider the record given below.
The molecule identified as CN(C)[C@@H](C(=O)N1CCC[C@H]1c1ncc(-c2ccc(-c3ccc(C(=O)Nc4ccc(CN5CCS(=O)(=O)CC5)cc4)cc3)cc2)[nH]1)c1ccccc1 registered its log10(IC50) at -1.00

---

# Tested on: HCV replicon cells Huh 9B (genotype 1b)
# PROTOCOL NOTES: 1b Replicon Assay (luciferase readout)
# Type: cell-based
# CONDITION CONTEXT: Hepatitis C virus; Huh 9B replicon cells, 72 h, luciferase activity; read-out: pIC50 1b Replicon (converted)
Please respond with reported IC50 for every item in the list.
Numbers only, in nM.

• CCCS(=O)(=O)N1CCN(Cc2ccc(NC(=O)c3ccc(-c4ccc(-c5cnc([C@@H]6CCCN6C(=O)[C@@H](NC(=O)OC)c6ccccc6)[nH]5)cc4)cc3)cc2)CC1 = 0.0537
• COC(=O)N[C@@H](C(=O)N1CCC[C@H]1c1ncc(-c2cccc(-c3ccc(C(=O)Nc4ccc(CN5CCS(=O)(=O)CC5)cc4)cc3)c2)[nH]1)c1ccccc1 = 21.4
• COC(=O)N[C@@H](C(=O)N1CCC[C@@H]1c1ncc(-c2ccc(-c3ccc(C(=O)Nc4ccc(CN5CCS(=O)(=O)CC5)cc4)cc3)cc2)[nH]1)c1ccccc1 = 102
• COC(=O)N[C@@H](C(=O)N1CCC[C@H]1c1ncc(-c2ccc(-c3cccc(C(=O)Nc4ccc(CN5CCS(=O)(=O)CC5)cc4)c3)cc2)[nH]1)c1ccccc1 = 0.912
• COC(=O)N[C@H](C(=O)N1CCC[C@H]1c1ncc(-c2ccc(-c3ccc(C(=O)Nc4ccc(CN5CCS(=O)(=O)CC5)cc4)cc3)c(C)c2)[nH]1)C(C)C = 0.209
• CCCS(=O)(=O)N1CCN(Cc2ccc(NC(=O)c3ccc(-c4ccc(-c5cnc([C@@H]6CCCN6C(=O)[C@@H](c6ccccc6)N(C)C)[nH]5)cc4)cc3)cc2)CC1 = 0.0263

Batch lookup, IC50 per entry.
1. CC(C)(C)OC(=O)N[C@H](C(=O)N1CCC[C@H]1c1ncc(-c2ccc(-c3ccc(C(=O)Nc4ccc(CN5CCS(=O)(=O)CC5)cc4)cc3)cc2)[nH]1)c1ccccc1
2. CCN(CC)[C@@H](C(=O)N1CCC[C@H]1c1ncc(-c2ccc(-c3cccc(C(=O)Nc4ccc(CN5CCS(=O)(=O)CC5)cc4)c3)cc2)[nH]1)c1ccccc1

Completion:
0.0138
0.209

Batch lookup, IC50 per entry.
1. CN(C)[C@@H](C(=O)N1CCCC[C@H]1c1ncc(-c2ccc(-c3ccc(C(=O)Nc4ccc(CN5CCS(=O)(=O)CC5)cc4)cc3)cc2)[nH]1)c1ccccc1
2. CC(C)[C@H](N)C(=O)N1CCC[C@H]1c1ncc(-c2ccc(-c3ccc(C(=O)Nc4ccc(CN5CCS(=O)(=O)CC5)cc4)cc3)cc2)[nH]1
3. COC(=O)N[C@@H](CC(C)C)C(=O)N1CCC[C@H]1c1ncc(-c2ccc(-c3ccc(C(=O)Nc4ccc(CN5CCS(=O)(=O)CC5)cc4)cc3)cc2)[nH]1
4. COC(=O)N[C@@H](C(=O)N1CCC[C@H]1c1ncc(-c2ccc(-c3ccc(C(=O)Nc4ccc(CN5CCS(=O)(=O)CC5)cc4)cc3)cc2)[nH]1)C(C)C
5. CC(C)(C)OC(=O)NCC(=O)N1CCC[C@H]1c1ncc(-c2ccc(-c3ccc(C(=O)Nc4ccc(CN5CCS(=O)(=O)CC5)cc4)cc3)cc2)[nH]1
6. COC(=O)N[C@H](C(=O)N1CCC[C@H]1c1ncc(-c2cccc(-c3ccc(C(=O)Nc4ccc(CN5CCS(=O)(=O)CC5)cc4)cc3)c2)[nH]1)C(C)C

Completion:
1. 0.813
2. 64.6
3. 0.355
4. 41.7
5. 105
6. 158

---

Please respond with reported Papp at 2 h, 10 µM for every item in the list.
# PROTOCOL NOTES: in vitro
# Type: in vitro ADME, Canine
# CONDITION CONTEXT: dog, MDCK
Numbers only, in ×10⁻⁶ cm/s.

• COC(=O)N[C@H](C(=O)N1CCC[C@H]1c1ncc(-c2ccc(-c3ccc(C(=O)Nc4ccc(CN5CCS(=O)(=O)CC5)cc4)cc3)c(C)c2)[nH]1)C(C)C = 6

Batch lookup, Papp at 2 h, 10 µM per entry.
1. CC(C)(C)OC(=O)N[C@@H](C(=O)N1CCC[C@H]1c1ncc(-c2ccc(-c3ccc(C(=O)Nc4ccc(CN5CCS(=O)(=O)CC5)cc4)cc3)cc2)[nH]1)c1ccccc1
2. CCN(CC)[C@@H](C(=O)N1CCC[C@H]1c1ncc(-c2ccc(-c3ccc(C(=O)Nc4ccc(CN5CCS(=O)(=O)CC5)cc4)cc3)cc2)[nH]1)c1ccccc1

Completion:
1: 0.2; 2: 1.2

---

# PROTOCOL NOTES: in vitro
# Assay type: in vitro ADME, Canine
# CONDITION CONTEXT: dog, MDCK
Please respond with reported Papp at 2 h, 10 µM for every item in the list.
Give bare numbers, in ×10⁻⁶ cm/s.

Examples with answers:
- COC(=O)N[C@H](C(=O)N1CCC[C@@H]1c1ncc(-c2ccc(-c3ccc(C(=O)Nc4ccc(CN5CCS(=O)(=O)CC5)cc4)cc3)cc2)[nH]1)C(C)C [Example 20]: 0.4
- COC(=O)N[C@H](C(=O)N1CCOC[C@H]1c1ncc(-c2ccc(-c3ccc(C(=O)Nc4ccc(CN5CCS(=O)(=O)CC5)cc4)cc3)cc2)[nH]1)c1ccccc1 [Example 47]: 0.1
- COC(=O)N[C@@H](CC(C)C)C(=O)N1CCC[C@H]1c1ncc(-c2ccc(-c3ccc(C(=O)Nc4ccc(CN5CCS(=O)(=O)CC5)cc4)cc3)cc2)[nH]1 [Example 14]: 1.2

Batch lookup, Papp at 2 h, 10 µM per entry.
1. COC(=O)N[C@H](C(=O)N1CCC[C@H]1c1ncc(-c2ccc(-c3ccc(C(=O)Nc4ccc(CN5CCS(=O)(=O)CC5)cc4)cc3)cc2)[nH]1)C(C)C [Example 3]
2. COC(=O)N[C@H](C(=O)N1CCC[C@H]1c1ncc(-c2ccc(-c3ccc(C(=O)Nc4ccc(CN5CCS(=O)(=O)CC5)cc4)cc3)cc2)[nH]1)c1ccccc1 [Example 6]

Completion:
4.1
0.1
